- test-method-notes: in vitro
- measurement-context: human
measurement-kind: CC50

[
  {
    "compound-string": "CCCCCN1CCN(c2nc(N)nc3sc(-c4ccc(F)cc4)nc23)CC1",
    "CC50": "> 312 µM"
  },
  {
    "compound-string": "COCCNC(=O)c1nc(N2CCN(C(=O)COc3ccc(Cl)cc3)CC2)c2cc(-c3ccc(F)cc3)sc2n1",
    "CC50": "> 155 µM"
  },
  {
    "compound-string": "O=C(O)c1nc(N2CCN(C(=O)COc3ccc(Cl)cc3)CC2)c2cc(-c3ccc(F)cc3)sc2n1",
    "CC50": "> 237 µM"
  }
]

Prompt line: Requested read-out: CC50. Entry: Cc1cccc(NC(=O)N2CCN(c3nc(-c4ccccc4)nc4sc(-c5ccc(F)cc5)cc34)CC2)c1
Response line: > 239 µM

###

- test-method-notes: in vitro
- measurement-context: African green monkey, PV CC50
The label is Fulfilled for CC50 below 100 µg/mL and Not fulfilled for CC50 equal to or exceeding 100 µg/mL.

[
  {
    "compound": "Nc1nc(N2CCN(C(=O)COc3ccc(Cl)cc3Cl)CC2)c2nc(CCc3ccc(F)cc3)sc2n1",
    "cat": "Not fulfilled"
  },
  {
    "compound": "CC(=O)N1CCN(c2nc(N)nc3oc(-c4ccc(F)cc4)nc23)CC1",
    "cat": "Not fulfilled"
  },
  {
    "compound": "O=C(COc1ccc(Cl)cc1)N1CCN(c2ncnc3oc(-c4ccc(F)cc4)nc23)CC1",
    "cat": "Not fulfilled"
  },
  {
    "compound": "CC(c1ccc(F)cc1)c1nc2c(N3CCN(C(=O)COc4ccc(Cl)cc4)CC3)nc(N)nc2s1 (stereo not shown)",
    "cat": "Not fulfilled"
  },
  {
    "compound": "COCCNC(=O)c1nc(N2CCN(C(=O)COc3ccc(Cl)cc3)CC2)c2cc(-c3ccc(F)cc3)sc2n1",
    "cat": "Not fulfilled"
  },
  {
    "compound": "Nc1nc(N2CCN(C(=O)COc3ccc(Cl)cc3)CC2)c2nc(Cc3ccc(F)cc3)sc2n1",
    "cat": "Not fulfilled"
  }
]

Prompt line: Field: below-cutoff. Rule: recorded CC50 strictly less than 100 µg/mL. Subject: Cc1cccc(NC(=O)N2CCN(c3nc(N)nc4sc(-c5ccc(F)cc5)cc34)CC2)c1
Response line: Not fulfilled

Prompt line: Would you kindly repeat that for Cc1cccc(OCC(=O)N2CCN(c3nc(N)nc4sc(CCc5ccc(F)cc5)nc34)CC2)c1 ?
Response line: Not fulfilled

Prompt line: Record: Nc1nc(N2CCN(C(=O)CCOc3ccc(F)cc3)CC2)c2nc(CCc3ccc(F)cc3)sc2n1
Response line: Fulfilled

Prompt line: Another compound to check: NC(=O)c1nc(N2CCN(C(=O)COc3ccc(Cl)cc3)CC2)c2cc(-c3ccc(F)cc3)sc2n1
Response line: Not fulfilled

Prompt line: Check Nc1nc(N2CCN(C(=O)COc3ccc(Cl)cc3)CC2)c2nc(C(Cc3ccccc3)c3ccc(F)cc3)sc2n1 (stereo not shown) too.
Response line: Not fulfilled

Prompt line: What do you get for Cc1nc(N2CCN(C(=O)COc3ccc(Cl)cc3)CC2)c2cc(-c3ccc(F)cc3)sc2n1 ?
Response line: Fulfilled

Prompt line: Moving on to the next compound: COc1ccc(OCC(=O)N2CCN(c3ncnc4sc(CCc5ccc(F)cc5)nc34)CC2)cc1
Response line: Fulfilled

###

- Tested on: hRV-29
- test-method-notes: Rhinovirus type 29 antiviral assay in Hela Rh cells, MTS readout
- Assay type: cell-based
- measurement-context: Human rhinovirus sp., HRV29, HeLa Rh, Hela Rh cells; read-out: hRV-29 EC50
Quick reference: EC50 of the listed items.
Respond with the bare value in µg/mL.

[
  {
    "compound": "Nc1nc(N2CCN(C(=O)COc3cccc(Cl)c3)CC2)c2nc(CCc3ccc(F)cc3)sc2n1 [Example 228]",
    "measured-on": "hRV-29",
    "measurement-kind": "EC50",
    "endpoint-unit": "µg/mL",
    "test-result": 1.38
  }
]

Prompt line: Lookup: EC50 / hRV-29 / COc1ccc(OCC(=O)N2CCN(c3nc(N)nc4sc(CCc5ccc(C)cc5)nc34)CC2)cc1 [Example 259]
Response line: 0.41

Prompt line: Can you handle COc1ccc(OCC(=O)N2CCN(c3nc(N)nc4sc(Cc5ccc(F)cc5)nc34)CC2)cc1 [Example 230] next?
Response line: 0.04

Prompt line: Record: Nc1nc(N2CCN(C(=O)COc3ccc(O)cc3)CC2)c2nc(CCc3ccc(F)cc3)sc2n1 [Example 224]
Response line: 0.49

###

- test-method-notes: in vitro
- measurement-context: African green monkey, PV CC50
This listing pairs molecules with measured CC50.

[
  {
    "molecule": "CC(C)CN1CCN(c2nc(N)nc3oc(-c4ccc(F)cc4)nc23)CC1 [Example 190]",
    "test-result": "130 µg/mL"
  },
  {
    "molecule": "Nc1nc(N2CCN(C(=O)COc3ccc(Br)cc3)CC2)c2nc(CCc3ccc(F)cc3)sc2n1 [Example 52]",
    "test-result": "111 µg/mL"
  },
  {
    "molecule": "CCCCCc1nc2c(N3CCN(C(=O)COc4ccc(Cl)cc4)CC3)nc(N)nc2o1 [Example 188]",
    "test-result": "103 µg/mL"
  }
]

Prompt line: Form field: reported CC50 of Cc1nc(N2CCN(C(=O)COc3ccc(Cl)cc3)CC2)c2nc(Cc3ccc(F)cc3)oc2n1 [Example 171]
Response line: 118 µg/mL

Prompt line: Let us now turn to Nc1nc(N2CCN(C(=O)COc3ccc(Cl)cc3)CC2)c2nc(CCOc3ccc(F)cc3)sc2n1 [Example 48]
Response line: > 150 µg/mL

Prompt line: What about O=C(COc1ccc(Cl)cc1)N1CCN(c2ncnc3sc(-c4ccc(F)cc4)cc23)CC1 [Example 312] ?
Response line: 116 µg/mL

Prompt line: And what about the molecule CCCCc1nc(N2CCN(C(=O)COc3ccc(Cl)cc3)CC2)c2cc(-c3ccc(F)cc3)sc2n1 [Example 313] ?
Response line: > 150 µg/mL

###

- Tested on: HIV-2 strain (ROD)
- test-method-notes: Inhibition of replication of HIV-2 (ROD strain) in MT-4 cells, MTT assay
- Type: cell-based
- measurement-context: Human immunodeficiency virus 2, MT4, 120 h; MT-4 cells, MTT assay, five days after infection, 50% protection from cytopathic effect; read-out: EC50 (μM) HIV-2 (ROD)
measurement-kind: EC50

Solved cases below.
[
  {
    "compound": "Cc1cccc(NC(=O)N2CCN(c3nc(N)nc4sc(C(C)c5ccc(F)cc5)nc34)CC2)c1 (centres unmarked)",
    "EC50": "> 30.3 µM"
  },
  {
    "compound": "Cc1nc(N2CCN(C(=O)COc3ccc(Cl)cc3)CC2)c2nc(Cc3ccc(F)cc3)oc2n1",
    "EC50": "> 33 µM"
  },
  {
    "compound": "O=C(COc1ccc(Cl)cc1)N1CCN(c2ncnc3oc(Cc4ccc(F)cc4)nc23)CC1",
    "EC50": "> 50 µM"
  },
  {
    "compound": "Nc1nc(N2CCN(CC(=O)N3CCOCC3)CC2)c2nc(-c3ccc(F)cc3)sc2n1",
    "EC50": "> 201 µM"
  },
  {
    "compound": "Nc1nc(N2CCN(C(=O)COc3ccc(Cl)cc3)CC2)c2nc(-c3ccc(F)cc3)oc2n1",
    "EC50": "> 50 µM"
  },
  {
    "compound": "Nc1nc(N2CCN(C(=O)COc3ccc(Br)cc3)CC2)c2nc(CCc3ccc(F)cc3)sc2n1",
    "EC50": "> 95.7 µM"
  },
  {
    "compound": "Nc1nc(N2CCN(C(=O)OCc3ccccc3)CC2)c2nc(-c3ccc(F)cc3)sc2n1",
    "EC50": "> 241 µM"
  }
]

Prompt line: Which value of EC50 has been reported for Nc1nc(N2CCOCC2)c2cc(-c3ccc(F)cc3)sc2n1 in the records?
Response line: > 239 µM

###

- test-method-notes: Cytotoxicity in HCV-1a replicon cells, Promega CellTiter-Glo cell viability assay
CC50 at 72 h reference
Field format: number, assumed µM, no unit text.

Solved entries (count: 9):
[
  {
    "molecule": "Nc1nc(N2CCN(S(=O)(=O)Cc3ccccc3)CC2)c2nc(CCc3ccc(F)cc3)sc2n1",
    "CC50 at 72 h, µM": 21.8
  },
  {
    "molecule": "Nc1nc(N2CCN(c3ccc(Cl)cc3)CC2)c2nc(-c3ccc(F)cc3)[nH]c2n1",
    "CC50 at 72 h, µM": 8.7
  },
  {
    "molecule": "Nc1nc(N[C@H]2CCN(C(=O)COc3ccc(Cl)cc3)C2)c2nc(CCc3ccc(F)cc3)sc2n1",
    "CC50 at 72 h, µM": 15.5
  },
  {
    "molecule": "Nc1nc(N2CCN(C(=O)COc3ccc(Cl)cc3)CC2)c2nc(-c3ccc(Cl)c(Cl)c3)sc2n1",
    "CC50 at 72 h, µM": 37.2
  },
  {
    "molecule": "Nc1nc(N2CCN(C(=O)COc3ccc(Cl)cc3)CC2)c2nc(C(c3ccc(F)cc3)C3CCCC3)sc2n1 (stereo not shown)",
    "CC50 at 72 h, µM": 31.2
  },
  {
    "molecule": "Nc1nc(NC2CCCN(C(=O)OCc3ccccc3)C2)c2nc(CCc3ccc(F)cc3)sc2n1 (stereo not shown)",
    "CC50 at 72 h, µM": 27.6
  },
  {
    "molecule": "Nc1nc(N2CCN(C(=O)COc3ccc(Cl)cc3)CC2)c2nc(-c3cccc(Cl)c3)[nH]c2n1",
    "CC50 at 72 h, µM": 8.1
  },
  {
    "molecule": "COc1ccc(-c2nc3c(N4CCN(C(=O)COc5ccc(Cl)cc5)CC4)nc(N)nc3[nH]2)cc1OC",
    "CC50 at 72 h, µM": 17.3
  },
  {
    "molecule": "Nc1nc(N2CCN(C(=O)COc3ccc(Cl)cc3)CC2)c2nc(Cc3ccc(Cl)cc3)sc2n1",
    "CC50 at 72 h, µM": 26.8
  }
]

Shifting focus to the molecule that follows.
Prompt line: If you can, please state the reported CC50 at 72 h value of CN(C(=O)CN1CCN(c2nc(N)nc3[nH]c(-c4ccc(F)cc4)nc23)CC1)c1ccccc1 .
Response line: 20.3
